We begin with a simple list: items and their reported kon.
- TESTED_ON: T1, human ROR1 Frizzled domain (hROR1-Fz) (human, UniProt Q01973 165-305)
- T1 construct: Acro Biosystems, made in HEK293
- MEASUREMENT_DESCRIPTION: SPR Biacore, IgG on anti-Fc, ROR1-Fz analyte
Answer in M⁻¹ s⁻¹, number only, no unit symbol.

Consider the reported kon for these binders:
BINDER	kon / M⁻¹ s⁻¹
SRP2196-A10 (antibody, V domains shown, His/FLAG-tagged IgG1) VH: EVQLVESGGGLVQPGGSLRLSCAASGFNITGYYIHWVRQAPGKGLEWVGYISPNSGATHYADSVKGRFTISADISKNTAYLQMNSLRAEDTAVHYCARDSRRYVRSWDYWGQGTLVTVSS VL: QAVVTQESALTTSPGETVTLTCRSSTGAVTTSNYANWVQEKPDHLFTGLIGGTNKRAPGVPARFSGSLIGDKAALTITGAQTEDEAIYFCALWYSNLWVFGGGTKLTVL	172000
SRP2196-A07 (antibody, V domains shown, His/FLAG-tagged IgG1) VH: EVQLVESGGGLVQPGGSLRLSCAASGFNITGYYIHWVRQAPGKGLEWVGQISPNSGSTYYADSVKGRFTISADTSKNTAYLQMSSLRAEDTAVYYCARDSRRYVRGWDYWGQGTLVTVSS VL: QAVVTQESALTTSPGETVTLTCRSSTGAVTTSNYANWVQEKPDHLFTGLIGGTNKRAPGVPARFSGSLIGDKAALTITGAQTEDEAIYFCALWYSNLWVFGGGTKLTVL	186000

Would you kindly look at the next entry?
Look up and state reported kon for SRP2196-A04 (antibody, V domains shown, His/FLAG-tagged IgG1) VH: EVQLVESGGGLVQPGGSLRLSCAASGFNISPYYIHWVRQAPGKGLEWVGQIYPISGHTYQADSVKGRFTISADTSKNTAYLQMNSLRAEDTAVYYCARESRRYVGPFGYWGQGTLVTVSS VL: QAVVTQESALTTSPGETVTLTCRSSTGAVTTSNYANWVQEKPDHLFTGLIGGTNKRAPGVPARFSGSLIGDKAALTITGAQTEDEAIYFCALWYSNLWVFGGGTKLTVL
139000
